# system-name: GDP-bound KRAS protein (aa 1-169), containing both G12C and C118A amino acid substitutions (Homo sapiens, UniProt P01116, C118A/G12C)
# Sequence (P01116 1-169 isoform P01116-2 G12C/C118A): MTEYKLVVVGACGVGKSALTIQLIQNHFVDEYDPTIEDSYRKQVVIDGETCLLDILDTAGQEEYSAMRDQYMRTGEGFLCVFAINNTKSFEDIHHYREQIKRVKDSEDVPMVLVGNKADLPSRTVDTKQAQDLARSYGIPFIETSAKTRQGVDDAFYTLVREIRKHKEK
# test: Coupled nucleotide exchange assay (SOS-mediated, AlphaScreen)
# Assay type: biochemical
# condition-description: 5 min compound pre-incubation
reported-property: Coupled exchange IC50 (5 min)

Past entries and their recorded results:
C=CC(=O)N1CCN(c2nc(=O)n(-c3c(OC)ncnc3OC)c3nc(-c4c(O)cccc4F)c(Cl)cc23)[C@@H](C)C1 [Example 55-3] ... 0.966 | nda μM
C=CC(=O)N1CCN(c2nc(=O)n(-c3ncc(C#N)cc3CC)c3nc(-c4c(O)cccc4F)c(Cl)cc23)[C@@H](C)C1 [Example 54-53] ... 0.193 | nda μM

Next compound, please.
[Q] // Coupled exchange IC50 (5 min) lookup, key: C=CC(=O)N1CCN(c2nc(=O)n(-c3ccccc3N3CCOCC3)c3nc(-c4c(O)cccc4F)c(Cl)cc23)[C@@H](C)C1 [Example 54-100]
[A] 2.51 | nda μM
